A collection of compounds and their measured IC50
- MEASUREMENT_PROTOCOL: Exogenous inhibition concentration of Serine/threonine protein phosphatase 2B (PP2B)
Give just the number in µM; leave the unit off.

compound="C=CC[C@@H]1/C=C(\\C)C[C@H](C)C[C@H](OC)[C@H]2O[C@@](O)(C(=O)C(=O)N3CCCC[C@H]3C(=O)O[C@H](/C(C)=C/[C@@H]3CC[C@@H](O)[C@H](OC)C3)[C@H](C)[C@@H](O)CC1=O)[C@H](C)C[C@@H]2OC [TACROLIMUS ANHYDROUS]" units_symbol=µM recorded_value=0.0005
compound=CC[C@@H](C)[C@H]1NC(=O)[C@H]([C@@H](C)CC)NC(=O)[C@H]([C@@H](C)CC)NC(=O)[C@H]([C@@H](C)CC)NC(=O)[C@@H](Cc2ccccc2)NC(=O)[C@H](Cc2ccccc2)NC(=O)[C@@H]2CCCN2C(=O)[C@@H]2CCCN2C(=O)[C@H](C(C)C)NC1=O units_symbol=µM recorded_value=5
compound=Cn1cc2c3c1C(=O)C1=C(C3=NCC2)C2(C=C(Br)C(=O)C(Br)=C2)CCN1 units_symbol=µM recorded_value=1.15
compound=C/C=C1/C(=O)C[C@@H](C(=O)O)[C@H](C)C(=O)N[C@@H](C(C)C)C(=O)N[C@@H](/C=C/C(C)=C/[C@H](C)[C@H](Cc2ccccc2)OC)[C@H](C)C(=O)N[C@@H](C(=O)O)CCC(=O)N1C units_symbol=µM recorded_value=8700

Continue with the next compound.
Quick check: IC50 of O=C(O)C1C2C[C@H](COC(=O)C3C[C@H]3c3ccccc3)[C@@H](O2)C1C(=O)O (some centres undefined) ?
11.5

* * *

A collection of compounds and their measured IC50
- MEASUREMENT_PROTOCOL: Inhibition of microcystin analogues to catalytic subunits of Serine/threonine protein phosphatase 1C
Give just the number in nM; leave the unit off.

Please review the entries below; each comes with its answer.
input_smiles=C=C1C(=O)N[C@H](CN)C(=O)N[C@@H](CC(C)C)C(=O)C[C@@H](C(=O)O)[C@H](C)C(=O)N[C@@H](C)C(=O)N[C@@H](/C=C/C(C)=C/[C@H](C)[C@H](Cc2ccccc2)OC)[C@H](C)C(=O)N[C@@H](C(=O)O)CCC(=O)N1C recorded_value=3
input_smiles=CO[C@@H](Cc1ccccc1)[C@@H](C)/C=C(C)/C=C/[C@@H]1NC(=O)[C@H](C)NC(=O)[C@@H](C)[C@H](C(=O)O)CC(=O)[C@H](CC(C)C)NC(=O)[C@@H](C)NC(=O)CN(C)C(=O)CC[C@H](C(=O)O)NC(=O)[C@H]1C recorded_value=0.8

Quick check: IC50 of CO[C@@H](Cc1ccccc1)[C@@H](C)/C=C(C)/C=C/[C@@H]1NC(=O)[C@H](C)NC(=O)[C@@H](C)[C@H](C(=O)O)CC(=O)[C@H](CC(C)C)NC(=O)[C@@H](C)NC(=O)CN(C2CCCCC2)C(=O)CC[C@H](C(=O)O)NC(=O)[C@H]1C ?
0.8

One more compound: C=C1C(=O)N[C@H](C)C(=O)N[C@@H](CC2CCCCC2)C(=O)C[C@@H](C(=O)O)[C@H](C)C(=O)N[C@@H](C)C(=O)N[C@@H](/C=C/C(C)=C/[C@H](C)[C@H](Cc2ccccc2)OC)[C@H](C)C(=O)N[C@@H](C(=O)O)CCC(=O)N1C
0.52

* * *

- MEASUREMENT_PROTOCOL: Selectivity for interaction at Serine/threonine protein phosphatase 2B (PP2B)
- TEST_CONTEXT: read-out: Ki app
QUANTITY: Ki

Quick check: Ki of O=C(O)C1C2C[C@H](COC(=O)C3C[C@H]3c3ccccc3)[C@@H](O2)C1C(=O)O (stereo partly specified) ?
500 nM

* * *

A collection of molecules and their measured pIC50
- MEASUREMENT_PROTOCOL: Exogenous inhibition concentration of Serine/threonine protein phosphatase 2B (PP2B)
pIC50: −log10 of the molar value.

Please review the entries below; each comes with its answer.
input_smiles=C=C1[C@@H](O)[C@@H]2O[C@]3(CC[C@H](/C=C/[C@@H](C)[C@@H]4CC(C)=C[C@@]5(O[C@H](C[C@@](C)(O)C(=O)O)CC[C@H]5O)O4)O3)CC[C@H]2O[C@@H]1[C@@H](O)C[C@H](C)[C@H]1O[C@@]2(CCCCO2)CC[C@H]1C quantity=pIC50 recorded_value="< 2.00"
input_smiles=C[C@@]12C(=O)OC(=O)[C@]1(C)[C@H]1CC[C@@H]2O1 quantity=pIC50 recorded_value="< 3.00"
input_smiles=COC[C@@H]([C@H](O)[C@H](O)C(=O)NCC[C@H](C)c1nc(/C=C/C[C@@H]2O[C@]3(C[C@@H](O)[C@@H]2C)O[C@H]([C@H](C[C@H](O)[C@H](C)[C@H](O)[C@H](C)/C=C(C)/C(C)=C/C=C/C(C)=C\C#N)OC)[C@H](OP(=O)(O)O)C3(C)C)co1)N(C)C quantity=pIC50 recorded_value="< 2.00"

Quick check: pIC50 of CC(=O)OC(C)(C)[C@H]1CC[C@](C)([C@@H](O)CC[C@](C)(O)[C@H]2CC[C@H]3O[C@@H]([C@]4(C)CC[C@@H](Br)C(C)(C)O4)CC[C@]3(C)O2)O1 ?
< 2.00
